What Ki was measured for each of the following?
target: human dopamine transporter (hDAT) (Homo sapiens, UniProt Q01959); assay: biochemical; assay type: binding
Sequence (Q01959 whole entry): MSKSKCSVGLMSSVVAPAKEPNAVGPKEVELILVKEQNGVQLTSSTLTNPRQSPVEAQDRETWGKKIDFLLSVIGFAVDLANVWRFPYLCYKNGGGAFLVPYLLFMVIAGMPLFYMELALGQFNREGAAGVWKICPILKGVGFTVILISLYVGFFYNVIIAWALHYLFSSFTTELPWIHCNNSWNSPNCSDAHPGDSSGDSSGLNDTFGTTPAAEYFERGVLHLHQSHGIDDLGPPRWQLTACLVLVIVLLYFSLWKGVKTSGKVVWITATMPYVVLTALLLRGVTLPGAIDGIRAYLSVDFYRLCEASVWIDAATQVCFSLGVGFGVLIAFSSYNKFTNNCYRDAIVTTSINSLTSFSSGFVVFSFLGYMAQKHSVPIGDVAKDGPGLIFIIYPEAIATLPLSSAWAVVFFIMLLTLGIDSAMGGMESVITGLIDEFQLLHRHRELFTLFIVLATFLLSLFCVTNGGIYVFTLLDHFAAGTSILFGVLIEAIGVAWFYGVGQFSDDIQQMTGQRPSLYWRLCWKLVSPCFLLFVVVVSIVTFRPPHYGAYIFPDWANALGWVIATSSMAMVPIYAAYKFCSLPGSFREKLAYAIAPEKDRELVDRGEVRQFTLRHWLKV
One number for each entry, in nM.

Solved cases below.
INSERT INTO assay_data (molecule, observed_result) VALUES
  ('Fc1ccc(C(OCCCCN2CCN(C(=S)Nc3cccnc3)CC2)c2ccc(F)cc2)cc1 [Compound 6]', 170),
  ('Fc1ccc(C(OCCCCN2CCN(Cc3ccc4c(c3)OCO4)CC2)c2ccc(F)cc2)cc1 [Compound 41]', 33),
  ('Fc1ccc(C(OCCCCN2CCN(c3ccccn3)CC2)c2ccc(F)cc2)cc1 [Compound 39]', 8.4),
  ('O=C(NCc1ccc(F)cc1)NC1CCN(CCCCOC(c2ccc(F)cc2)c2ccc(F)cc2)CC1 [Compound 18]', 1.7),
  ('COc1ccccc1N1CCN(CCCCOC(c2ccc(F)cc2)c2ccc(F)cc2)CC1 [Compound 35]', 26.2),
  ('O=C(NCC1(c2ccccc2)CCN(CCCCOC(c2ccc(F)cc2)c2ccc(F)cc2)CC1)Nc1ccc(F)cc1 [Compound 22]', 83);

Working through the 7 molecules below one at a time, give Ki for each.
1. O=C(Nc1ccc(F)cc1)NC1CCN(CCCCOC(c2ccc(F)cc2)c2ccc(F)cc2)CC1 [Compound 17]
2. O=C(NCc1ccc(F)cc1)NCC1CCCN(CCCCOC(c2ccc(F)cc2)c2ccc(F)cc2)C1 (stereo not drawn) [Compound 13]
3. O=C(Nc1ccc(F)cc1)N1CCN(CCCCOC(c2ccc(F)cc2)c2ccc(F)cc2)CC1 [Compound 4]
4. Fc1ccc(C(OCCCCN2CCN(c3ccccc3Cl)CC2)c2ccc(F)cc2)cc1 [Compound 32]
5. NCC1CCCN(CCCCOC(c2ccc(F)cc2)c2ccc(F)cc2)C1 (stereo not drawn) [Compound 10]
6. O=C(c1ccccc1)N1CCN(CCCCOC(c2ccc(F)cc2)c2ccc(F)cc2)CC1 [Compound 40]
7. CC(=O)c1ccc(N2CCN(CCCCOC(c3ccc(F)cc3)c3ccc(F)cc3)CC2)cc1 [Compound 37]

1. 32
2. 203
3. 60
4. 67
5. 113
6. 19.7
7. 27
